ASSAYED_SYSTEM: Protein Tat (Human immunodeficiency virus type 1 group M subtype B (isolate HXB2)) (UniProt P04608)
Sequence (P04608 whole entry, looked up): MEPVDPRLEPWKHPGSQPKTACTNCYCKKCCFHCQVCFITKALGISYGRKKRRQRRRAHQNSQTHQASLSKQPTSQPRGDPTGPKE
TEST_METHOD_NOTES: inhibitors of Tat binding to TAR RNA, dose response, counter-screen for Vif-APOBEC3G degradation inhibitor project, biochemical, fluorescence polarization, FAM-labeled TAR RNA (AID 1117361)
RECORDED_ENDPOINT: IC50

**Query** I'd like to know its IC50. The molecule in question is O=C(CCCN1C(=O)/C(=C\c2ccco2)SC1=S)Nc1cccc2ccccc12
**Result** 7.92 µM

**Query** Could you tell me which IC50 is on file for COc1ccc(CCNC(=O)c2ccc3nc(-c4ccco4)c(-c4ccco4)nc3c2)cc1OC ?
**Result** 4.32 µM

**Query** IC50 lookup needed for CN(CCC#N)C(=O)COC(=O)c1c2c(nc3ccccc13)/C(=C\c1ccco1)CC2 , thanks.
**Result** 79.8 µM

**Query** Would you kindly share the measured IC50 for CC(=O)c1sc(C(=O)O)c(-c2ccco2)c1-c1ccco1 ?
**Result** 4.86 µM

----------
ASSAYED_SYSTEM: Protein Tat (Human immunodeficiency virus type 1 group M subtype B (isolate HXB2)) (UniProt P04608)
TEST_METHOD_NOTES: inhibitors of Tat binding to TAR RNA, dose response, counter-screen for Vif-APOBEC3G degradation inhibitor project, biochemical, fluorescence polarization, FAM-labeled TAR RNA (AID 1117361)
Answer each item with its documented pIC50.
Worth noting: pIC50 values are minus log10 of concentrations stated in mol/L.

**Query** Requested read-out: pIC50. Entry: Nc1cccc2cc(S(=O)(=O)O)ccc12
**Result** 4.17

**Query** pIC50 for COc1ccc(NC(=O)CN(C)C(=O)c2cc(-c3ccco3)nc3ccccc23)cc1 ?
**Result** 4.33

**Query** Name the recorded pIC50 for c1cnc(N2CCN(c3cnccn3)CC2)nc1 .
**Result** 4.14

**Query** Name the recorded pIC50 for CCOC(=O)Cc1cc(=O)n2[nH]c(C)cc2n1 .
**Result** 4.11

**Query** Record request: pIC50 value, item O=C(O)Cc1ccc(N=Nc2c(O)c(C(=O)O)cc3ccccc23)cc1
**Result** 4.56

----------
Consider the following molecules; for each one, report its IC50.
ASSAYED_SYSTEM: Protein Tat (Human immunodeficiency virus type 1 group M subtype B (isolate HXB2)) (UniProt P04608)
TEST_METHOD_NOTES: inhibitors of Tat binding to TAR RNA, dose response, counter-screen for Vif-APOBEC3G degradation inhibitor project, biochemical, fluorescence polarization, FAM-labeled TAR RNA (AID 1117361)

**Query** Could you share which IC50 value was measured for Cc1ccc(N2C(=O)/C(=C/c3ccc(CN(CCC#N)S(C)(=O)=O)o3)C(=O)NC2=S)cc1 ?
**Result** 90 µM

**Query** // returns reported IC50 for input Cc1ccc2cc(CN(Cc3nnnn3Cc3ccco3)CC3CCCO3)c(=O)[nH]c2c1C (centres undefined)
**Result** 29.4 µM

**Query** Name the reported IC50 value associated with the molecule CC1CCCCC1NC(=O)COC(=O)c1c2c(nc3ccccc13)/C(=C/c1ccco1)CC2 (centres undefined)
**Result** 7.58 µM

**Query** So what does the record say about IC50 for COc1ccc2c(c1)C(=O)c1ccccc1CO2 ?
**Result** 46.3 µM

**Query** Which IC50 value belongs to O=C(NCCc1ccccc1)c1ccc2nc(-c3ccco3)c(-c3ccco3)nc2c1 ?
**Result** 33.1 µM

**Query** For Nc1cccc2c(O)cc(S(=O)(=O)O)cc12 , what is its reported IC50?
**Result** 19.3 µM

**Query** Return reported IC50; argument: Cc1cc(O)c(-c2cc(O)c(C)cc2O)cc1O
**Result** 89.7 µM

**Query** # query: IC50 of entry CC(C)OC(=O)c1cccc(C(=O)O)n1
**Result** 1.92 µM

**Query** Given Cn1nc(-c2ccc(Cl)cc2)c2cc(C(=O)N3CCN(c4ccccc4)CC3)sc21 , state its recorded IC50.
**Result** 12.6 µM

----------
Exercise: for every item that follows, state its recorded pIC50.
ASSAYED_SYSTEM: Protein Tat (Human immunodeficiency virus type 1 group M subtype B (isolate HXB2)) (UniProt P04608)
TEST_METHOD_NOTES: inhibitors of Tat binding to TAR RNA, dose response, counter-screen for Vif-APOBEC3G degradation inhibitor project, biochemical, fluorescence polarization, FAM-labeled TAR RNA (AID 1117361)
Scale: negative log10 of molar concentration, which is what pIC50 denotes.

**Query** Consider the molecule COc1ccc(NC(=O)c2cccc(S(=O)(=O)Nc3ccc(Br)cc3)c2)cn1 and give its measured pIC50.
**Result** 5.67

**Query** Returns the measured pIC50 for the input molecule. Input: C=C(C)C(=O)Nc1ccc2c(c1)OCCOCCOCCO2
**Result** 4.67

**Query** Which pIC50 is listed for NC1=NC(=O)/C(=C\c2ccco2)S1 ?
**Result** 5.22

**Query** Please give the measured pIC50 for this molecule: O=C1C2C3CCCC3=C3CCCC3C2C(=O)N1c1ccccc1 (stereo not given)
**Result** 5.08

**Query** Look up pIC50: CCOc1ccccc1C(O)C1=CC(=O)c2ccccc2C1=O (stereo not given)
**Result** 4.11

**Query** I'd like to know its pIC50. The molecule in question is CC(=O)NN1C(=O)/C(=C/c2ccc(Br)o2)SC1=S
**Result** 4.44

**Query** pIC50 lookup needed for CC(=O)OC1COC(n2ccc3ccccc32)C(OC(C)=O)C1OC(C)=O (stereo not given) , thanks.
**Result** 4.05

**Query** pIC50 for COC(=O)c1ccccc1NC(=O)CCS(=O)(=O)c1ccc(Br)cc1 ?
**Result** 4.74

**Query** // returns reported pIC50 for input COc1cccc(NC(=O)CSc2nnc(-c3ccco3)c(-c3ccco3)n2)c1
**Result** 4.16

**Query** Please look up its pIC50: O=C1/C(=C\c2ccco2)NC(=S)N1c1ccccc1
**Result** 4.79

**Query** Name the recorded pIC50 for c1coc(-c2nc3ccccc3nc2-c2ccco2)c1 .
**Result** 5.19

**Query** Quick one: pIC50 for Oc1ccccc1/C=N/c1c(-c2ccco2)nc2ccccn12 ?
**Result** 5.53

**Query** Entry under review: Cc1cc(-c2n[nH]c(=S)n2/N=C/C=C/c2ccco2)n[nH]1 . Reported pIC50?
**Result** 4.73

**Query** Please give the measured pIC50 for this molecule: COc1ccc(Nc2ccc(OC)cc2)cc1
**Result** 4.64

**Query** Fill in: pIC50 of CCNc1ccc(Br)cc(C(=O)/C=C/c2ccc(Cl)cc2)c1=O is ___
**Result** 4.90

**Query** pIC50 lookup needed for O=C(O)c1ccc(Cl)c2c1C1C=CCC1C(c1ccccn1)N2 (stereo not given) , thanks.
**Result** 5.55

**Query** For the molecule O=C(NCc1ccccn1)c1ccc2nc(-c3ccco3)c(-c3ccco3)nc2c1 , what pIC50 is on record?
**Result** 5.32

**Query** So what does the record say about pIC50 for CC(=O)Nc1ccc(S(=O)(=O)Nc2nc3ccccc3nc2Nc2ccc(C(=O)O)c(O)c2)cc1 ?
**Result** 4.49

**Query** Fill blank: measured pIC50 of the molecule O=C(NCc1ccccc1)c1ccc2nc(-c3ccco3)c(-c3ccco3)nc2c1 is ____.
**Result** 5.34

**Query** Sample Nc1ccc(N(CCO)CCO)cc1 — what was its pIC50?
**Result** 5.02

----------
ASSAYED_SYSTEM: Protein Tat (Human immunodeficiency virus type 1 group M subtype B (isolate HXB2)) (UniProt P04608)
TEST_METHOD_NOTES: inhibitors of Tat binding to TAR RNA, dose response, counter-screen for Vif-APOBEC3G degradation inhibitor project, biochemical, fluorescence polarization, FAM-labeled TAR RNA (AID 1117361)
RECORDED_ENDPOINT: IC50

**Query** Report IC50 for COC/C=C/C1=CC2=CC(=O)C(C)(OC(=O)c3ccco3)C(=O)C2=CO1 (centres undefined) please.
**Result** 7.47 µM

**Query** Dear colleague, I am looking for the recorded IC50 of the following compound: O=C(CSc1nc2ccccc2n1CCc1ccccc1)c1ccc(O)c(O)c1
**Result** 8.81 µM

**Query** State the recorded IC50 for this entry: N#Cc1c(-c2ccco2)c2c([nH]c1=S)CCCC2
**Result** 8.34 µM

**Query** Given the compound CC(=O)c1ccc(NC(=O)c2ccc3nc(-c4ccco4)c(-c4ccco4)nc3c2)cc1 , what is its reported IC50?
**Result** 7.73 µM

**Query** Given the entry O=C1NC(=O)N(c2ccccc2)C(=O)/C1=C\c1ccc([N+](=O)[O-])s1 , report its measured IC50.
**Result** 10.7 µM

**Query** # get_value(readout='IC50', item= Cc1ccc(C=C2C(Cl)=C(Cl)C(Cl)=C2Cl)cc1 )
**Result** 4.67 µM

**Query** What value of IC50 has been reported for the following compound? Oc1cccc(C=NCc2ccccc2)c1O
**Result** 6.47 µM

**Query** Name the reported IC50 value associated with the compound CNc1ccccc(C(=O)/C=C/c2ccccc2OC)c1=O
**Result** 6.69 µM

**Query** Value lookup for IC50; key = CC1=C(C(=O)Nc2ccccc2)C(c2ccc(C)o2)n2c(s/c(=C\c3ccco3)c2=O)=N1 (centres undefined)
**Result** 5.9 µM
